- test.description: Tmax in Sprague-Dawley rat at 3.6 mg/kg, po
- Format: ADME, organism-based
- Design: dose 3.6 mg/kg, route oral
- settings: Sprague-Dawley, in vivo
assay.metric: Tmax (h)
Numbers only, in h.

Supply Tmax value. Item: C[S+]([O-])c1ccc(-c2cnc3ccc(-c4cccc(S(=O)(=O)C5CC5)c4)nn23)cc1 (stereo unspecified)
8

====

- test.description: Aqueous solubility of the compound at pH 6.5
- Assay type: physicochemical
- settings: buffer
assay.metric: solubility (µM)
One number for each entry, in µM.

Consider the following illustrative entries.
>  <smiles.representation>
CS(=O)(=O)c1cncc(-c2ccc3ncc(-c4cncc(S(C)(=O)=O)c4)n3n2)c1

>  <assay.metric>
solubility

>  <reported.result>
53

$$$$
>  <smiles.representation>
CS(=O)(=O)c1ccc(-c2cnc3ccc(-c4cncc(N)c4)nn23)cc1

>  <assay.metric>
solubility

>  <reported.result>
15

$$$$

Supply solubility value. Item: `CS(=O)(=O)c1cccc(-c2ccc3ncc(-c4ccc(S(=O)(=O)CCCN)cc4)n3n2)c1`
180

====

- Tested on: Liver microsome
- test.description: Metabolic stability in human liver microsomes assessed as compound remaining after 30 mins
- Type: ADME
- settings: 0.5 h
assay.metric: Stability

Consider the following illustrative entries.
>  <molecule>
CS(=O)(=O)c1cccc(-c2ccc3ncc(-c4ccc(S(=O)(=O)N5CCNCC5)cc4)n3n2)c1

>  <reported.result>
Unstable

$$$$
>  <molecule>
CS(=O)(=O)c1ccc(-c2cnc3ccc(-c4cccc(S(=O)(=O)CCCN)c4)nn23)cc1

>  <reported.result>
Stable

$$$$
>  <molecule>
CS(=O)(=O)c1ccc(-c2cnc3ccc(-c4cccc(C(=O)N5CCC(O)CC5)c4)nn23)cc1

>  <reported.result>
Stable

$$$$
>  <molecule>
CS(=O)(=O)c1cccc(-c2ccc3ncc(-c4ccc(C(=O)N5CCC(O)C5)cc4)n3n2)c1 (stereo not given)

>  <reported.result>
Stable

$$$$
>  <molecule>
CS(=O)(=O)c1cccc(-c2ccc3ncc(-c4ccc(S(=O)(=O)CCCN)cc4)n3n2)c1

>  <reported.result>
Stable

$$$$

For every item below, please supply its Stability.
1. C[S+]([O-])c1cccc(-c2ccc3ncc(-c4ccc(S(C)(=O)=O)cc4)n3n2)c1 (stereo not given)
2. CS(=O)(=O)c1ccc(-c2cnc3ccc(-c4cccc(C(=O)NCCO)c4)nn23)cc1
3. C[S+]([O-])c1ccc(-c2cnc3ccc(-c4cccc(S(C)(=O)=O)c4)nn23)cc1 (stereo not given)
4. CS(=O)(=O)c1cccc(-c2ccc3ncc(-c4ccc(C(=O)N5CCNCC5)cc4)n3n2)c1
5. C[S+]([O-])c1ccc(-c2cnc3ccc(-c4cccc([S+](C)[O-])c4)nn23)cc1 (stereo not given)

Unstable
Unstable
Stable
Stable
Unstable

====

- test.description: Aqueous solubility of the compound at pH 2
- Type: physicochemical
- settings: buffer
What log10 solubility was measured for each of the following?
Scale type: logarithmic (base 10). Underlying solubility unit: µM.

>  <compound>
CS(=O)(=O)c1cccc(-c2ccc3ncc(-c4cncc(S(C)(=O)=O)c4)n3n2)c1

>  <log10 solubility>
1.20

$$$$
>  <compound>
CS(=O)(=O)c1ccc(-c2cnc3ccc(-c4cccc(S(=O)(=O)C5CC5)c4)nn23)cc1

>  <log10 solubility>
1.28

$$$$

For every item below, please supply its log10 solubility.
1. CS(=O)(=O)c1cccc(-c2ccc3ncc(-c4ccc(N)nc4)n3n2)c1
2. CS(=O)(=O)c1ccc(-c2cnc3ccc(-c4cccc(S(=O)(=O)CCO)c4)nn23)cc1

1. 2.28
2. 2.28

For every item below, please supply its log10 solubility.
1. CS(=O)(=O)c1ccc(-c2cnc3ccc(-c4cncc(N)c4)nn23)cc1
2. NC(=O)c1ccc(-c2cnc3ccc(-c4cccc(S(=O)(=O)C5CC5)c4)nn23)cc1
3. C[S+]([O-])c1ccc(-c2cnc3ccc(-c4cccc([S+](C)[O-])c4)nn23)cc1 (centres undefined)

1. 2.24
2. 0.80
3. 2.31

These data points were gathered from ChEMBL document CHEMBL3352608.
